Values were extracted from patent US4226610A.

Tested on: chigaya
Experiment: Experiment 1 foliar application to naturally growing weeds; also: key: -: no reproduction, namely complete suppression of reproduction; ±: remarkable suppression of reproduction; +: considerable suppression of reproduction; ++: medium supprestion of reproduction; +++: no suppression of reproduction
Assay type: in vivo, Imperata cylindrica Beauv.
Settings: 0.2%; 4 months
Counter-ions that a name gives are not always drawn.
measured_parameter: Reproduction-inhibiting effect

# example entries with known answers
q: Read the entry CP(=O)(O)CCC(N)C(=O)O (racemic) [DL-2-Amino-4-methylphosphinobutanoic acid monodiethanolammon] and write its reported Reproduction-inhibiting effect.
a: -

q: State, in one line, measured Reproduction-inhibiting effect of C[C@H](NC(=O)[C@H](C)NC(=O)[C@@H](N)CCP(C)(=O)O)C(=O)O [SF-1293 choline]
a: -

q: Tell us which Reproduction-inhibiting effect value is on record for C[C@H](NC(=O)[C@H](C)NC(=O)[C@@H](N)CCP(C)(=O)O)C(=O)O [monosodium salt]
a: -

q: Please look at this compound and report its Reproduction-inhibiting effect: CP(=O)(O)CCC(N)C(=O)O (racemic) [DL-AMPB choline]
a: -

q: Return Reproduction-inhibiting effect for the following compound: CP(=O)(O)CC[C@H](N)C(=O)O [L-AMPB choline]
a: -

q: State its Reproduction-inhibiting effect: CP(=O)(O)CC[C@H](N)C(=O)O [monosodium salt]
a: -

q: Name the recorded Reproduction-inhibiting effect of the item C[C@H](NC(=O)[C@H](C)NC(=O)[C@@H](N)CCP(C)(=O)O)C(=O)O [(L-2-Amino-4-methylphosphinobutyryl)-L-alanyl-L-alanine mono] in your answer.
a: -

q: Indicate its recorded Reproduction-inhibiting effect; the compound in question is CP(=O)(O)CCC(N)C(=O)O (racemic) [monosodium salt]
a: -

---
q: Please report the measured Reproduction-inhibiting effect for CP(=O)(O)CC[C@H](N)C(=O)O [L-2-Amino-4-methylphosphinobutanoic acid monodiethanolammoni]
a: -

q: Identify Reproduction-inhibiting effect associated with the compound O=C(O)CNCP(=O)(O)O [Glyphosate, N-phosphonomethylglycine]
a: ±
